- tested.system: D(1A) dopamine receptor (Homo sapiens); further: assay procedure not described here
- Sequence (P21728 whole entry): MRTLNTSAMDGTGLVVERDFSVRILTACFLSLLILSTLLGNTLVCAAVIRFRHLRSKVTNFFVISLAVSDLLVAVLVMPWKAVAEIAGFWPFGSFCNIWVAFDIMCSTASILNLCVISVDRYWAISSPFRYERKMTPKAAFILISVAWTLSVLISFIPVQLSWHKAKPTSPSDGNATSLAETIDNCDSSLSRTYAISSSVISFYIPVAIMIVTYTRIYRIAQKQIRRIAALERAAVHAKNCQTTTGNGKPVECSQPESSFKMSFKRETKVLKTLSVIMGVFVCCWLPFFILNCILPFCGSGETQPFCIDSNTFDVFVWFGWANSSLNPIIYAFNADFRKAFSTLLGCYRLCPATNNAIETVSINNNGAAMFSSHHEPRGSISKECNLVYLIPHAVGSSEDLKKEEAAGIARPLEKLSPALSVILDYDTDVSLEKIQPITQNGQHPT
- Assay type: functional, cell-based
reported.endpoint: AC50

Reported AC50 ( CCOc1cc(CC(=O)N[C@@H](CC(C)C)c2ccccc2N2CCCCC2)ccc1C(=O)O [REPAGLINIDE] ) = > 30 µM

Reported AC50 ( COc1ccc(Cc2nccc3cc(OC)c(OC)cc23)cc1OC [PAPAVERINE] ) = > 30 µM

Reported AC50 ( Cn1c(=O)c2[nH]cnc2n(C)c1=O [THEOPHYLLINE] ) = > 10 µM

Reported AC50 ( CCCN(CCC)CCc1cccc2c1CC(=O)N2 [ROPINIROLE] ) = > 30 µM

Reported AC50 ( CC(CCc1ccccc1)NC(C)C(O)c1ccc(O)cc1 (stereo unspecified) [NYLIDRIN] ) = > 10 µM

Reported AC50 ( COc1c(O[C@@H]2O[C@H](CO)[C@@H](O)[C@H](O)[C@H]2O)cc2c(c1OC)-c1ccc(SC)c(=O)cc1[C@@H](NC(C)=O)CC2 [THIOCOLCHICOSIDE] ) = > 30 µM

Reported AC50 ( CC1(C)C(C=C(Cl)Cl)C1C(=O)OCc1cccc(Oc2ccccc2)c1 (stereo unspecified) [PERMETHRIN] ) = > 10 µM

Reported AC50 ( O=C(CCCN1CCC(n2c(O)nc3ccccc32)CC1)c1ccc(F)cc1 [BENPERIDOL] ) = > 30 µM

Reported AC50 ( Nc1ccc(C(=O)O)c(O)c1 [AMINOSALICYLIC ACID] ) = > 30 µM

Reported AC50 ( [H]/N=C(/N)N[C@H]1[C@H](O)[C@@H](O)[C@H](O[C@@H]2O[C@@H](C)[C@](O)(C=O)[C@H]2O[C@@H]2O[C@@H](CO)[C@H](O)[C@@H](O)[C@@H]2NC)[C@@H](N/C(N)=N\[H])[C@@H]1O [STREPTOMYCIN] ) = > 30 µM

Reported AC50 ( O=C1CN=C(c2ccccc2)c2cc(Cl)ccc2N1 [NORDAZEPAM] ) = > 10 µM

Reported AC50 ( O=C1Nc2ccc(Cl)cc2C(c2ccccc2)=NC1O (stereo unspecified) [OXAZEPAM] ) = > 10 µM

Reported AC50 ( CC(=O)S[C@@H]1CC2=CC(=O)CC[C@]2(C)[C@H]2CC[C@@]3(C)[C@@H](CC[C@@]34CCC(=O)O4)[C@H]12 [SPIRONOLACTONE] ) = > 30 µM

Reported AC50 ( CCOC(=O)Nc1ccc2c(c1)N(C(=O)CCN1CCOCC1)c1ccccc1S2 [MORICIZINE] ) = > 30 µM

Reported AC50 ( COc1cccc2c1C(=O)c1c(O)c3c(c(O)c1C2=O)C[C@@](O)(C(C)=O)C[C@@H]3O[C@H]1C[C@H](N)[C@H](O)[C@H](C)O1 [DAUNORUBICIN] ) = > 30 µM

Reported AC50 ( CC(=O)OCC(=O)[C@@]1(O)CC[C@H]2[C@@H]3CCC4=CC(=O)CC[C@]4(C)C3=CC[C@@]21C [ANECORTAVE ACETATE] ) = > 10 µM

* * *

- tested.system: UniProt P35367
- Sequence (P35367 whole entry): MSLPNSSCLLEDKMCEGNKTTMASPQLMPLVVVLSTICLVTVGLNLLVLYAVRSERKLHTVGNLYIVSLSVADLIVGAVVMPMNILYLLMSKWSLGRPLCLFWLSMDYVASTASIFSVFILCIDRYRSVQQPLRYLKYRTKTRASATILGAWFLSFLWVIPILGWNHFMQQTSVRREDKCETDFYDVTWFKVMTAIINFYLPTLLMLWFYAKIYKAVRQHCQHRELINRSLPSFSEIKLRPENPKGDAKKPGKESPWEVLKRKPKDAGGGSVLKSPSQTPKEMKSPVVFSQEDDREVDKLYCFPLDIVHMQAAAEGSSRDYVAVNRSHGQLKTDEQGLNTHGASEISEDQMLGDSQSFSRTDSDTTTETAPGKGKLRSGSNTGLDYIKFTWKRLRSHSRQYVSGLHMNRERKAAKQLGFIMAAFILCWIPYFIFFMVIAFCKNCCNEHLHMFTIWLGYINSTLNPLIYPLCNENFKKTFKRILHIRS
- Format: functional, cell-based
Kindly state AC50 for each of the entries shown.

Reported AC50 ( CN1c2ccccc2C(NCCCCCCC(=O)O)c2ccc(Cl)cc2S1(=O)=O (centres undefined) ) = > 30 µM

Reported AC50 ( O=C(CCCN1CCC2(CC1)C(=O)NCN2c1ccccc1)c1ccc(F)cc1 ) = 7.1 µM

Reported AC50 ( CCOC(=O)Nc1ccc2c(c1)N(C(=O)CCN1CCOCC1)c1ccccc1S2 ) = > 30 µM

Reported AC50 ( CN(C)c1cc(CNCC(C)(C)C)c(O)c2c1C[C@H]1C[C@H]3[C@H](N(C)C)C(O)=C(C(N)=O)C(=O)[C@@]3(O)C(O)=C1C2=O ) = > 30 µM

* * *

- tested.system: 5-hydroxytryptamine receptor 3A (Homo sapiens, UniProt P46098); further: assay procedure not described here
- Sequence (P46098 whole entry): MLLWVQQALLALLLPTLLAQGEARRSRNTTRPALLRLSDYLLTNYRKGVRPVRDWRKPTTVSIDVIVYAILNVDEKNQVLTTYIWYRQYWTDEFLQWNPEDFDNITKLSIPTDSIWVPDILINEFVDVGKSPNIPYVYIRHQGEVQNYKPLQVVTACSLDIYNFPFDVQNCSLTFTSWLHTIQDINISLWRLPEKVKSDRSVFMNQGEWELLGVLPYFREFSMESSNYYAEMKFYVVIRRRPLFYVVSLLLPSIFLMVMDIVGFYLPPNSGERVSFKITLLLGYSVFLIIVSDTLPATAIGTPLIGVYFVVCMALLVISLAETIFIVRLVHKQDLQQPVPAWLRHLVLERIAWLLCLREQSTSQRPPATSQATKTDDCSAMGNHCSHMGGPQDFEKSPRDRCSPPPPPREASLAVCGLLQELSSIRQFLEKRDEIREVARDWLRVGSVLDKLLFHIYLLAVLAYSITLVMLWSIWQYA
- Assay type: functional
reported.endpoint: AC50

Reported AC50 ( [H]/N=C(/N)N[C@H]1[C@H](O)[C@@H](O)[C@H](O[C@@H]2O[C@@H](C)[C@](O)(C=O)[C@H]2O[C@@H]2O[C@@H](CO)[C@H](O)[C@@H](O)[C@@H]2NC)[C@@H](N/C(N)=N\[H])[C@@H]1O ) = > 30 µM

Reported AC50 ( CC(=O)/N=c1/sc(S(N)(=O)=O)nn1C [METHAZOLAMIDE] ) = > 30 µM

Reported AC50 ( CCn1cc(C(=O)O)c(=O)c2cc(F)c(N3CCNCC3)nc21 ) = > 10 µM

Reported AC50 ( CCCCNc1ccc(C(=O)OCCN(C)C)cc1 ) = > 10 µM

Reported AC50 ( N=C(N)c1ccc2cc(OC(=O)c3ccc(N=C(N)N)cc3)ccc2c1 ) = 14 µM

Reported AC50 ( CC(C)OC(=O)C(C(=O)OC(C)C)=C1SC=CS1 [MALOTILATE] ) = > 30 µM

Reported AC50 ( N[C@H](Cc1cc(I)c(Oc2cc(I)c(O)c(I)c2)c(I)c1)C(=O)O ) = > 30 µM

Reported AC50 ( O=C(Nc1c(Cl)cncc1Cl)c1ccc(OC(F)F)c(OCC2CC2)c1 ) = > 30 µM

* * *

reported.endpoint: AC50

Entry C[C@@H]1CCC[C@H](C)N1NC(=O)c1ccc(Cl)c(S(N)(=O)=O)c1 [CLOPAMIDE] under Sodium-dependent dopamine transporter (Homo sapiens) had AC50 of > 30 µM

Entry COc1cccc2c1C(=O)c1c(O)c3c(c(O)c1C2=O)C[C@@](O)(C(C)=O)C[C@@H]3O[C@H]1C[C@H](N)[C@H](O)[C@H](C)O1 [DAUNORUBICIN] under Sodium-dependent dopamine transporter (Homo sapiens) had AC50 of 17.7 µM

Entry CS(=O)(=O)OCCCCOS(C)(=O)=O [BUSULFAN] under Sodium-dependent dopamine transporter (Homo sapiens) had AC50 of > 30 µM

Entry CC#CCn1c(N2CCC[C@@H](N)C2)nc2c1c(=O)n(Cc1nc(C)c3ccccc3n1)c(=O)n2C [LINAGLIPTIN] under Sodium-dependent dopamine transporter (Homo sapiens) had AC50 of > 30 µM

Entry CN(c1nccc(=O)[nH]1)C1CCN(c2nc3ccccc3n2Cc2ccc(F)cc2)CC1 [MIZOLASTINE] under Sodium-dependent dopamine transporter (Homo sapiens) had AC50 of > 30 µM

Entry O=C(Nc1nc(-c2cc(Cl)cs2)c(N2CCN(C3CCCCC3)CC2)s1)c1cnc(N2CCC(C(=O)O)CC2)c(Cl)c1 [AVATROMBOPAG] under Sodium-dependent dopamine transporter (Homo sapiens) had AC50 of > 10 µM

Entry CC1(C)S[C@@H]2[C@H](NC(=O)[C@H](N)c3ccc(O)cc3)C(=O)N2[C@H]1C(=O)O [AMOXICILLIN] under Sodium-dependent dopamine transporter (Homo sapiens) had AC50 of > 30 µM

* * *

- tested.system: Alpha-1A adrenergic receptor (Homo sapiens); further: assay procedure not described here
- Sequence (P35348 whole entry): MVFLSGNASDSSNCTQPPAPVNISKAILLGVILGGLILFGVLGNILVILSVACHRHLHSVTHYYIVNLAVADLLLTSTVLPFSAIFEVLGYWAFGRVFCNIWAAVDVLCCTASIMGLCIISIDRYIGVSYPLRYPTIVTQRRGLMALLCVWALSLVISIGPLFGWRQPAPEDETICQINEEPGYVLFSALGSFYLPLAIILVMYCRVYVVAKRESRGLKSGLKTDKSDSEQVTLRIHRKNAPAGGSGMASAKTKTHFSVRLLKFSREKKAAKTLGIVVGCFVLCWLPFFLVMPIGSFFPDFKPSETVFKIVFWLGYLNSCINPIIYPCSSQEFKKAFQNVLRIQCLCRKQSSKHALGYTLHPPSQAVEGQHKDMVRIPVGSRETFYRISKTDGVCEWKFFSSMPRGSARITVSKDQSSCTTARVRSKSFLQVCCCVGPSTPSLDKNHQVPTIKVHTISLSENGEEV
Kindly state AC50 for each of the entries shown.

Entry CC(C)(C)NCC(O)c1cc(Cl)c(N)c(Cl)c1 (stereo not drawn) under Alpha-1A adrenergic receptor (Homo sapiens) had AC50 of 13 µM

Entry NS(=O)(=O)c1cc(C2(O)NC(=O)c3ccccc32)ccc1Cl (stereo not drawn) under Alpha-1A adrenergic receptor (Homo sapiens) had AC50 of > 10 µM

Entry CC(=O)OCC(=O)[C@@]1(O)CC[C@H]2[C@@H]3CCC4=CC(=O)CC[C@]4(C)C3=CC[C@@]21C [ANECORTAVE ACETATE] under Alpha-1A adrenergic receptor (Homo sapiens) had AC50 of > 10 µM

Entry CCc1oc2ccccc2c1C(=O)c1cc(Br)c(O)c(Br)c1 under Alpha-1A adrenergic receptor (Homo sapiens) had AC50 of > 10 µM

Entry CN(C)c1cc(NC(=O)CNC(C)(C)C)c(O)c2c1C[C@H]1C[C@H]3[C@H](N(C)C)C(O)=C(C(N)=O)C(=O)[C@@]3(O)C(O)=C1C2=O under Alpha-1A adrenergic receptor (Homo sapiens) had AC50 of > 30 µM

Entry NC(=O)CCC/N=C(\c1ccc(Cl)cc1)c1cc(F)ccc1O [PROGABIDE] under Alpha-1A adrenergic receptor (Homo sapiens) had AC50 of > 10 µM

Entry COC1=C(OC)C(=O)C(CCCCCCCCCCO)=C(C)C1=O under Alpha-1A adrenergic receptor (Homo sapiens) had AC50 of > 10 µM

Entry Cc1ccc(=O)n(-c2ccccc2)c1 under Alpha-1A adrenergic receptor (Homo sapiens) had AC50 of > 10 µM
